- Test system: mice bearing PSMA-expressing LNCAP cancer xenografts
- experiment_summary: Biodistribution of 68Ga-labeled compounds
- Assay type: in vivo
- condition: 1 h post-injection
test_readout: Brain uptake (% ID/g)

Example entries begin here.
compound: O=C([O-])CN1CCN(CC(=O)[O-])CCN(CC(=O)NCCCC[C@H](NC(=O)CNC(=O)CCCc2ccc(F)cc2)C(=O)NC[C@H]2CC[C@H](C(=O)N[C@@H](Cc3ccc4ccccc4c3)C(=O)NCCCC[C@H](NC(=O)N[C@@H](CCC(=O)O)C(=O)O)C(=O)O)CC2)CCN(CC(=O)[O-])CC1.[68Ga+3] [^68Ga-HTK03085]
test_readout: Brain uptake
units: % ID/g
quantitative_readout: 0.08
//
compound: COc1ccc(CCCC(=O)NCC(=O)N[C@@H](CCCCNC(=O)CN2CCN(CC(=O)[O-])CCN(CC(=O)[O-])CCN(CC(=O)[O-])CC2)C(=O)NC[C@H]2CC[C@H](C(=O)N[C@@H](Cc3ccc4ccccc4c3)C(=O)NCCCC[C@H](NC(=O)N[C@@H](CCC(=O)O)C(=O)O)C(=O)O)CC2)cc1.[68Ga+3] [^68Ga-HTK03086]
test_readout: Brain uptake
units: % ID/g
quantitative_readout: 0.15
//
compound: O=C([O-])CN1CCN(CC(=O)[O-])CCN(CC(=O)NCC2CCC(C(=O)NC(Cc3c4ccccc4cc4ccccc34)C(=O)NCCCCC(NC(=O)NC(CCC(=O)O)C(=O)O)C(=O)O)CC2)CCN(CC(=O)[O-])CC1.[68Ga+3] (centres unmarked) [^68Ga-HTK03041]
test_readout: Brain uptake
units: % ID/g
quantitative_readout: 0.10
//
compound: CCCCCCC(NC(=O)C1CCC(CNC(=O)CN2CCN(CC(=O)[O-])CCN(CC(=O)[O-])CCN(CC(=O)[O-])CC2)CC1)C(=O)NCCCCC(NC(=O)NC(CCC(=O)O)C(=O)O)C(=O)O.[68Ga+3] (centres unmarked) [^68Ga-HTK03026]
test_readout: Brain uptake
units: % ID/g
quantitative_readout: 0.06
//
compound: O=C([O-])CN1CCN(CC(=O)[O-])CCN(CC(=O)NCCCC[C@H](NC(=O)CNC(=O)CCCc2ccc(I)cc2)C(=O)NC[C@H]2CC[C@H](C(=O)N[C@@H](Cc3ccc4ccccc4c3)C(=O)NCCCC[C@H](NC(=O)N[C@@H](CCC(=O)O)C(=O)O)C(=O)O)CC2)CCN(CC(=O)[O-])CC1.[68Ga+3] [^68Ga-HTK03024]
test_readout: Brain uptake
units: % ID/g
quantitative_readout: 0.31
//
compound: Nc1ccc(CCCC(=O)NCC(=O)N[C@@H](CCCCNC(=O)CN2CCN(CC(=O)[O-])CCN(CC(=O)[O-])CCN(CC(=O)[O-])CC2)C(=O)NC[C@H]2CC[C@H](C(=O)N[C@@H](Cc3ccc4ccccc4c3)C(=O)NCCCC[C@H](NC(=O)N[C@@H](CCC(=O)O)C(=O)O)C(=O)O)CC2)cc1.[68Ga+3] [^68Ga-HTK03087]
test_readout: Brain uptake
units: % ID/g
quantitative_readout: 0.04

(1) O=C([O-])CN1CCN(CC(=O)[O-])CCN(CC(=O)NCC2CCC(C(=O)NC(Cc3ccc4ccc5cccc6ccc3c4c56)C(=O)NCCCCC(NC(=O)NC(CCC(=O)O)C(=O)O)C(=O)O)CC2)CCN(CC(=O)[O-])CC1.[68Ga+3] (centres unmarked) [^68Ga-HTK03029]
(2) O=C([O-])CN1CCN(CC(=O)[O-])CCN(CC(=O)NCC2CCC(C(=O)NC(Cc3ccc4cc5ccccc5cc4c3)C(=O)NCCCCC(NC(=O)NC(CCC(=O)O)C(=O)O)C(=O)O)CC2)CCN(CC(=O)[O-])CC1.[68Ga+3] (centres unmarked) [^68Ga-HTK03027]
Between these two entries, 1 and 2 , state which has the higher Brain uptake. Respond with the label that goes with your answer.
1

----------
Below, each of the compounds is paired with its reported Intestine uptake value.
- Tested on: mice bearing PSMA-expressing LNCAP cancer xenografts
- experiment_summary: Biodistribution of 68Ga-labeled compounds
- Assay type: in vivo
- condition: 3 h post-injection
Express it in % ID/g; write the number only.

Example entries begin here.
compound: Cc1ccc(CCCC(=O)NCC(=O)N[C@@H](CCCCNC(=O)CN2CCN(CC(=O)[O-])CCN(CC(=O)[O-])CCN(CC(=O)[O-])CC2)C(=O)NC[C@H]2CC[C@H](C(=O)N[C@@H](Cc3ccc4ccccc4c3)C(=O)NCCCC[C@H](NC(=O)N[C@@H](CCC(=O)O)C(=O)O)C(=O)O)CC2)cc1.[68Ga+3] [^68Ga-HTK03090]
Intestine uptake (% ID/g): 0.98
//
compound: O=C([O-])CN1CCN(CC(=O)[O-])CCN(CC(=O)NCCCC[C@H](NC(=O)CNC(=O)CCCc2ccc([N+](=O)[O-])cc2)C(=O)NC[C@H]2CC[C@H](C(=O)N[C@@H](Cc3ccc4ccccc4c3)C(=O)NCCCC[C@H](NC(=O)N[C@@H](CCC(=O)O)C(=O)O)C(=O)O)CC2)CCN(CC(=O)[O-])CC1.[68Ga+3] [^68Ga-HTK03089]
Intestine uptake (% ID/g): 0.45
//
compound: COc1ccc(CCCC(=O)NCC(=O)N[C@@H](CCCCNC(=O)CN2CCN(CC(=O)[O-])CCN(CC(=O)[O-])CCN(CC(=O)[O-])CC2)C(=O)NC[C@H]2CC[C@H](C(=O)N[C@@H](Cc3ccc4ccccc4c3)C(=O)NCCCC[C@H](NC(=O)N[C@@H](CCC(=O)O)C(=O)O)C(=O)O)CC2)cc1.[68Ga+3] [^68Ga-HTK03086]
Intestine uptake (% ID/g): 0.71

Noted for Nc1ccc(CCCC(=O)NCC(=O)N[C@@H](CCCCNC(=O)CN2CCN(CC(=O)[O-])CCN(CC(=O)[O-])CCN(CC(=O)[O-])CC2)C(=O)NC[C@H]2CC[C@H](C(=O)N[C@@H](Cc3ccc4ccccc4c3)C(=O)NCCCC[C@H](NC(=O)N[C@@H](CCC(=O)O)C(=O)O)C(=O)O)CC2)cc1.[68Ga+3] [^68Ga-HTK03087] : its Intestine uptake reads 0.23

Noted for O=C([O-])CN1CCN(CC(=O)[O-])CCN(CC(=O)NCCCC[C@H](NC(=O)CNC(=O)CCCc2ccc(Cl)cc2)C(=O)NC[C@H]2CC[C@H](C(=O)N[C@@H](Cc3ccc4ccccc4c3)C(=O)NCCCC[C@H](NC(=O)N[C@@H](CCC(=O)O)C(=O)O)C(=O)O)CC2)CCN(CC(=O)[O-])CC1.[68Ga+3] [^68Ga-HTK03055] : its Intestine uptake reads 1.29

Noted for O=C([O-])CN1CCN(CC(=O)[O-])CCN(CC(=O)NCCCC[C@H](NC(=O)CNC(=O)CCc2ccccc2)C(=O)NC[C@H]2CC[C@H](C(=O)N[C@@H](Cc3ccc4ccccc4c3)C(=O)NCCCC[C@H](NC(=O)N[C@@H](CCC(=O)O)C(=O)O)C(=O)O)CC2)CCN(CC(=O)[O-])CC1.[68Ga+3] [^68Ga-HTK03082] : its Intestine uptake reads 0.19

Noted for O=C([O-])CN1CCN(CC(=O)[O-])CCN(CC(=O)NCCCC[C@H](NC(=O)CNC(=O)CCCc2ccccc2)C(=O)NC[C@H]2CC[C@H](C(=O)N[C@@H](Cc3ccc4ccccc4c3)C(=O)NCCCC[C@H](NC(=O)N[C@@H](CCC(=O)O)C(=O)O)C(=O)O)CC2)CCN(CC(=O)[O-])CC1.[68Ga+3] [^68Ga-HTK03056] : its Intestine uptake reads 0.34

Noted for O=C([O-])CN1CCN(CC(=O)[O-])CCN(CC(=O)NCCCC[C@H](NC(=O)CNC(=O)CCCc2ccc(I)cc2)C(=O)NC[C@H]2CC[C@H](C(=O)N[C@@H](Cc3ccc4ccccc4c3)C(=O)NCCCC[C@H](NC(=O)N[C@@H](CCC(=O)O)C(=O)O)C(=O)O)CC2)CCN(CC(=O)[O-])CC1.[68Ga+3] [^68Ga-HTK03024] : its Intestine uptake reads 1.66

----------
Below, each of the molecules is paired with its reported Lacrimal uptake value.
- Test system: mice bearing PSMA-expressing LNCAP cancer xenografts
- experiment_summary: Biodistribution of 68Ga-labeled compounds
- Assay type: in vivo
- condition: 1 h post-injection
Express it in % ID/g; write the number only.

molecule: Cc1ccc(CCCC(=O)NCC(=O)N[C@@H](CCCCNC(=O)CN2CCN(CC(=O)[O-])CCN(CC(=O)[O-])CCN(CC(=O)[O-])CC2)C(=O)NC[C@H]2CC[C@H](C(=O)N[C@@H](Cc3ccc4ccccc4c3)C(=O)NCCCC[C@H](NC(=O)N[C@@H](CCC(=O)O)C(=O)O)C(=O)O)CC2)cc1.[68Ga+3] [^68Ga-HTK03090]
target_or_test_system: mice bearing PSMA-expressing LNCAP cancer xenografts
Lacrimal uptake, % ID/g: 0.16
--
molecule: O=C([O-])CN1CCN(CC(=O)[O-])CCN(CC(=O)NCCCC[C@H](NC(=O)CNC(=O)CCc2ccccc2)C(=O)NC[C@H]2CC[C@H](C(=O)N[C@@H](Cc3ccc4ccccc4c3)C(=O)NCCCC[C@H](NC(=O)N[C@@H](CCC(=O)O)C(=O)O)C(=O)O)CC2)CCN(CC(=O)[O-])CC1.[68Ga+3] [^68Ga-HTK03082]
target_or_test_system: mice bearing PSMA-expressing LNCAP cancer xenografts
Lacrimal uptake, % ID/g: 0.08

Noted for O=C([O-])CN1CCN(CC(=O)[O-])CCN(CC(=O)NCCCC[C@H](NC(=O)CNC(=O)CCCc2ccc(F)cc2)C(=O)NC[C@H]2CC[C@H](C(=O)N[C@@H](Cc3ccc4ccccc4c3)C(=O)NCCCC[C@H](NC(=O)N[C@@H](CCC(=O)O)C(=O)O)C(=O)O)CC2)CCN(CC(=O)[O-])CC1.[68Ga+3] [^68Ga-HTK03085] : its Lacrimal uptake reads 0.11
